- Tested on: MS2 coat protein
- EXPERIMENT SUMMARY: apparent KD of MS2 coat protein; designed switch direction (-1 OFF switch, 1 ON switch): 1; higher = weaker reporter binding
- REPORTED CONDITIONS: input ligand: none
MEASUREMENT KIND: apparent KD of MS2 coat protein (nM)
Kindly provide the numeric value in nM only, without the unit symbol.

Past entries and their recorded results:
GGUAUGGACACAGGAUAUGCUAUCCUUUGGGUAGCAGAAGGGUGAACAUGAGGAUCACCCAUGUACGUGCCAGGGCGUGAGCCC [JL SSNG1 1.78] (Eterna round: R96, puzzle: Same State NG 1)    1620
UGCCUGAGUCGAGGAUAUUAUGGAUCCUCUAAUACAUGAGGAUCACCCAUGUAAUUAAUUAUACAUGAGAAGGCGACUCAGGCU [SSNG2/12-A1] (Eterna round: R96, puzzle: Same State NG 2)    46.5
GCUGCGUUUAACGCCUACAUGAGGAUCACCCAUGUAUGUAGGCAGGAUAUCGUUUGCUUUGCAAACGAGAAGGGCUGUAGUAGC [salish99_SSNG3_R04_005] (Eterna round: R96, puzzle: Same State NG 3)    73.8

For the next question, use this sequence.
Tell me reported apparent KD of MS2 coat protein for GGUACUAUCACAGGAUAUGCUAUCCUUUGGGUAGCAGAAGGGUGGUACAUGAGGAUCACCCAUGUGGUGCCAGGGCGUGAGCCC [JL SSNG1 1.97] (Eterna round: R96, puzzle: Same State NG 1) , tested with MS2 coat protein. 318

###

- Tested on: K4 kissing-loop RNA reporter;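 further: bound reporter read as fluorescence of individual clusters on recovered sequencing chips by microscopy, with normalized cluster intensities fitted with a binding model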
- EXPERIMENT SUMMARY: apparent KD of K4 kissing-loop reporter; higher = weaker reporter binding
- REPORTED CONDITIONS: Eterna round: R107; input ligand: tryptophan 2.4 mM
MEASUREMENT KIND: apparent KD of K4 kissing-loop reporter (nM)
Write down the numeric answer in nM and omit the unit.

The cases that follow already have their apparent KD of K4 kissing-loop reporter on record.
UCUUUAGUAUAUGAUACCAGCAGUGAGAGACAGGAAGUAUAGUGAUGUUAUAUGAGAGAAUGCCCUUGGCAGCGUGUGCGGUGGG [SSTheophylB.T]    101
CCAUCGCUAUUCGAUACCAGUCAGGAGGUCUUUGGCCUCCUAUUGGAGUGAUGUUCCAUAGACCCUUGGCAGCGAAUAGUGAUGG [Theophylline B K4 15]    510

Now let's try a different one.
Record request: apparent KD of K4 kissing-loop reporter value, item `AGUCCACUCUAAAGAGUGGACCUAAGGGAUACCAGUGAUGUUGGUCACCCUUGGCAGCCCGCUGUCAUCGAUAAAGAUGGCAGUA` 117

###

- System: MS2 coat protein
- EXPERIMENT SUMMARY: apparent KD of MS2 coat protein; designed switch direction (-1 OFF switch, 1 ON switch): -1; higher = weaker reporter binding
- REPORTED CONDITIONS: Eterna round: R95; input ligand: none
sequences and their reported apparent KD of MS2 coat protein
Write down the value, and be sure its unit follows.

AGAUGUAGAUACCGAUCCUACAUGAGGAUCACCCAUGUAGCUAGACGUGCUCGCGUUGCUCGUCAGACUACCAGUAG [salish99_TOv1_r3_088] (puzzle: Sensor v3, turn-off variant 1)    382 nM
AUAAAGAAUGUUAGGAUAUUGGUGAAUAGGCUGACUAAGAAGGAACAUGAGGAUCACCCAUGUAAAAUGGAAAA [Readima] (puzzle: Brourd's mod of Exclusion 4)    29.1 nM
AGUACGAUGCGUGCUGACAUGCGUCGUGCAGCAGGUGAUACAUGAGGAUCACCCAUGUCCUCAUUUGCUCGUCUUGU [Mat - Sensor v3 - Turn-off var 2 - D18] (puzzle: Sensor v3, turn-off variant 2)    36.1 nM
AAGGUGUUAGGAUAUCGGAGGUUGAGGCAGACGGGAAUUUUCGAGAAGGAACAUGAGGAUCACCCAUGUAGUAG [JR_Exclu4_Sub038] (puzzle: Exclusion 4)    21.3 nM

apparent KD of MS2 coat protein lookup needed for AGUACUAUGCGAGCUGACUUGCGUAGUGCAGCAGGUGUUACAUGAGGAUCACCCAUGUCCUCAUUUGCUCGUCUUAU [Mat - Sensor v3 - Turn-off var 2 - D6] (puzzle: Sensor v3, turn-off variant 2) , thanks. 247 nM
